# TESTED TARGET: GST-tagged truncated human mutant G2019S LRRK2 (Homo sapiens, UniProt Q5S007, G2019S)
# TEST PROTOCOL: LRRK2 G2019S Km ATP LanthaScreen assay
# Type: biochemical
# APPLIED CONDITIONS: 134 μM ATP (Km ATP), LRRKtide substrate, mean IC50 values; read-out: LRRK2 pIC50 (converted)
In plain terms, low IC50, meaning strictly below 9 nM, gives true, and everything else gives false.

Query :: Input COC1CCC1n1ncc(Nc2ncc3cc(Cl)c(N4CCC(C)(O)CC4)cc3n2)c1C (single isomer, unassigned) [Ex-6.20] ; condition: IC50 strictly below 9 nM. Does it hold?
Result :: true

Query :: Input CC(C)(O)CN1CCN(c2cc3nc(Nc4cnn(C5CC5)c4Cl)ncc3cc2Cl)CC1 ; condition: IC50 strictly below 9 nM. Does it hold?
Result :: false

Query :: Input CCn1ncc(Nc2ncc3cc(Cl)c(N4CCN(C5(C)COC5)CC4)cc3n2)c1C ; condition: IC50 strictly below 9 nM. Does it hold?
Result :: true

Query :: Input Cc1cc2cnc(Nc3cnn(C45CC(C4)C5)c3Cl)nc2cc1N1CCN(C2(C)COCC2O)CC1 (single isomer, unassigned) [Ex-13.4] ; condition: IC50 strictly below 9 nM. Does it hold?
Result :: true

Query :: Input CC1(N2CCN(c3cc4nc(Nc5cnn(C6CC6)c5Cl)ncc4cc3Cl)CC2)COCC1O (single isomer, unassigned) [Ex-1.45] ; condition: IC50 strictly below 9 nM. Does it hold?
Result :: false

Query :: Input CCc1cc2cnc(Nc3cnn(C4CC4(F)F)c3Cl)nc2cc1N1CCN(C2(C)COCC2O)CC1 (single isomer, unassigned) ; condition: IC50 strictly below 9 nM. Does it hold?
Result :: true

Query :: Input CC1CCN1c1cc2nc(Nc3cnn(C4CN(CC(C)(C)O)C4)c3)ncc2cc1Cl (stereo not drawn) ; condition: IC50 strictly below 9 nM. Does it hold?
Result :: false

Query :: Input Cc1c(Nc2ncc3ccc(N4C(=O)OC[C@H]4C)cc3n2)cnn1C1CCOCC1 ; condition: IC50 strictly below 9 nM. Does it hold?
Result :: false

Query :: Input Cc1cc(Nc2ncc3cc(Cl)c(N4CCC(C)(O)CC4)cc3n2)sn1 ; condition: IC50 strictly below 9 nM. Does it hold?
Result :: false

Query :: Input Cn1ncc(Nc2ncc3cc(Cl)c(N4CCN(C5(C)COCC5O)CC4)cc3n2)c1C(F)F (single isomer, unassigned) ; condition: IC50 strictly below 9 nM. Does it hold?
Result :: true

Query :: Input Cc1cc2cnc(Nc3cnn(C4CC4(F)F)c3Cl)nc2cc1N1CCNCC1 (stereo not drawn) ; condition: IC50 strictly below 9 nM. Does it hold?
Result :: false

Query :: Input CCC1(N2CCN(c3cc4nc(Nc5cnn(C6(C)CC6)c5Cl)ncc4cc3Cl)CC2)COC1 ; condition: IC50 strictly below 9 nM. Does it hold?
Result :: true

====

# TESTED TARGET: GST-tagged truncated human mutant G2019S LRRK2 (Homo sapiens, UniProt Q5S007, G2019S)
# TEST PROTOCOL: LRRK2 G2019S Km ATP LanthaScreen assay
# Type: biochemical
# APPLIED CONDITIONS: 134 μM ATP (Km ATP), LRRKtide substrate, mean IC50 values; read-out: LRRK2 pIC50 (converted)
MEASURED PROPERTY: IC50
Write the numeric value and append its unit.

IC50 recorded for this compound, COCC12CC(n3cc(Nc4ncc5cc(Cl)c(N6CCC7(CC6)COC(CO)C7)cc5n4)cn3)(C1)C2 (single isomer, unassigned) [Ex-3.17] , is 2.28 nM

IC50 recorded for this compound, CC1(N2CCN(c3cc4nc(Nc5cnn(C6CC6(F)F)c5Cl)ncc4cc3Cl)CC2)COCC1O (single isomer, unassigned) [Ex-6.33] , is 0.212 nM

IC50 recorded for this compound, CCn1ncc(Nc2ncc3ccc(N4CCCC4C)cc3n2)c1C (single isomer, unassigned) [Ex-1.8] , is 16 nM

====

# TESTED TARGET: GST-tagged truncated human mutant G2019S LRRK2 (Homo sapiens, UniProt Q5S007, G2019S)
# TEST PROTOCOL: LRRK2 G2019S Km ATP LanthaScreen assay
# Format: biochemical
# APPLIED CONDITIONS: 134 μM ATP (Km ATP), LRRKtide substrate, mean IC50 values; read-out: LRRK2 pIC50 (converted)
For each entry below, report its IC50 value.
Supply the numeric figure in µM, leaving out any unit text.

IC50 recorded for this compound, Cc1cc(Nc2ncc3cc(Cl)c(N4CCN(C5(C)COCC5O)[C@@H](C)C4)cc3n2)n(C2CC2)n1 (single isomer, unassigned) , is 0.0975

IC50 recorded for this compound, Cc1cc2cnc(Nc3cnn(C45CC(C4)C5)c3Cl)nc2cc1N1CC2(C1)CN(C1COCC1O)C2 (single isomer, unassigned) , is 0.0209

IC50 recorded for this compound, Cc1c(Nc2ncc3cc(Cl)c(N4CCN(C5(C)COCC5O)CC4)cc3n2)cnn1C (single isomer, unassigned) [Ex-3.43] , is 0.000438

IC50 recorded for this compound, CC1(O)C2CC1CN(c1cc3nc(Nc4cnn(C5CC5)c4Cl)ncc3cc1Cl)C2 (stereo not shown) , is 0.00893

====

# TESTED TARGET: GST-tagged truncated human mutant G2019S LRRK2 (Homo sapiens, UniProt Q5S007, G2019S)
# TEST PROTOCOL: LRRK2 G2019S Km ATP LanthaScreen assay
# Format: biochemical
# APPLIED CONDITIONS: 134 μM ATP (Km ATP), LRRKtide substrate, mean IC50 values; read-out: LRRK2 pIC50 (converted)
MEASURED PROPERTY: IC50 (nM)
Supply the numeric figure in nM, leaving out any unit text.

IC50 recorded for this compound, C[C@H]1COC(=O)N1c1ccc2cnc(Nc3cn(C)nc3C(F)F)nc2c1 [Ex-8.12] , is 1.63

IC50 recorded for this compound, Clc1cc2cnc(Nc3cnn(C4CC4)c3Cl)nc2cc1N1CCC(N2CCCC2)CC1 [Ex-1.44] , is 22.3

IC50 recorded for this compound, O=C1COCC12CCN(c1cc3nc(Nc4cnn(C5CC5)c4Cl)ncc3cc1Cl)CC2 [Ex-3.36] , is 3.02

IC50 recorded for this compound, Cc1c(Nc2ncc3cc(Cl)c(N4CCN(C5COCC5O)CC4)cc3n2)cnn1CC(F)(F)F (single isomer, unassigned) [Ex-6.32] , is 0.608

IC50 recorded for this compound, Cc1c(Nc2ncc3cc(Cl)c(N4CCN(C5COCC5O)CC4)cc3n2)cnn1C1CC1(F)F (single isomer, unassigned) [Ex-6.39] , is 0.65

IC50 recorded for this compound, OC1C2CC1CN(c1cc3nc(Nc4cnn(C5CC5)c4Cl)ncc3cc1Cl)C2 (stereo not shown) [Ex-1.35] , is 3.48

IC50 recorded for this compound, OC1COCC12CCN(c1cc3nc(Nc4cnn(C5CC5(F)F)c4Cl)ncc3cc1Cl)CC2 (single isomer, unassigned) [Ex-3.57] , is 23.1

IC50 recorded for this compound, CN1CCC2(CCN(c3cc4nc(Nc5cnn(C6(C)CC6)c5Cl)ncc4cc3Cl)C2)C1 (stereo not shown) [Ex-4.42] , is 6.55

IC50 recorded for this compound, Cc1c(Nc2ncc3cc(Cl)c(N4CCC(C)(O)C(C)C4)cc3n2)cnn1C1CC1 (single isomer, unassigned) [Ex-3.49] , is 1.33

IC50 recorded for this compound, Cc1c(Nc2ncc3cc(Cl)c(N4CCN(C5COCC5O)CC4)cc3n2)cnn1CC(F)F (single isomer, unassigned) [Ex-6.25] , is 0.418

IC50 recorded for this compound, Cc1cc2cnc(Nc3cnn(C4CC4)c3Cl)nc2cc1N1CCN(C2(C)COC2)CC1 [Ex-5.10] , is 5.67

IC50 recorded for this compound, O[C@H]1CCN(c2cc3nc(Nc4cnn(CC(F)F)c4Cl)ncc3cc2Cl)C1 [Ex-1.17] , is 9.26

IC50 recorded for this compound, CC(C)(O)Cn1ncc(Nc2ncc3cc(Cl)c(N4CCC(O)CC4)cc3n2)c1Cl [Ex-3.11] , is 0.488

IC50 recorded for this compound, CN1CCC2CCN(c3cc4nc(Nc5cnn(C6CC6)c5Cl)ncc4cc3Cl)C2C1 (stereo not shown) [Ex-1.42] , is 25.6

IC50 recorded for this compound, Cc1c(Nc2ncc3cc(Cl)c(N4CCN(C5COC5)[C@@H](C)C4)cc3n2)cnn1CCF [Ex-4.14] , is 0.969

IC50 recorded for this compound, CN1CCC2(CCN(c3cc4nc(Nc5cnn(CC(C)(C)O)c5Cl)ncc4cc3Cl)C2)C1 (stereo not shown) [Ex-1.13] , is 21
